- Test system: NOMO1
- experimental_protocol: cell viability relative to DMSO control; higher = less cytotoxic
- details: RPMI 5 mM glucose + 10% FBS; 48 h; 15.4 µM
In plain terms, low cell viability, meaning strictly below 90%, gives Satisfied, and everything else gives Not satisfied.

Worked set:
compound	answer_label
CCc1cncnc1N1CCN(Cc2nc3cc(C(F)(F)F)ccc3[nH]2)CC1	Satisfied
Oc1ccc2c3c1O[C@H]1c4[nH]c5c(c4C[C@@]4(O)[C@@H](C2)N(CC2CC2)CC[C@]314)C[C@@]1(O)[C@H]2Cc3ccc(O)c4c3[C@@]1(CCN2CC1CC1)[C@H]5O4	Not satisfied
O=NN(CCCl)C(=O)NCCCl	Not satisfied
CC(C)n1nc(-c2cc3cc(O)ccc3[nH]2)c2c(N)ncnc21	Satisfied
CC(N[C@H]1C[C@@H]1c1ccccc1)c1ccc2c(c1)OCCO2 (stereo partly drawn)	Not satisfied

### Prompt State whether 90% exceeds cell viability recorded for COc1c(C)cnc(Cn2cnc3c(Cl)nc(N)nc32)c1C .
### Response Satisfied

### Prompt Would you kindly repeat that for Nc1ccccc1NC(=O)c1ccc(CNC(=O)OCc2cccnc2)cc1 ?
### Response Satisfied

### Prompt Would you kindly repeat that for COc1cc2c(cc1-c1c(C)noc1C)ncc1[nH]c(=O)n([C@H](C)c3ccccn3)c12 ?
### Response Satisfied

### Prompt Would you kindly repeat that for CC1=C(/C=C/C(C)=C/C=C/C(C)=C/C=C/C=C(C)/C=C/C=C(C)/C=C/C2=C(C)CCCC2(C)C)C(C)(C)CCC1 ?
### Response Not satisfied

### Prompt Would you kindly repeat that for CC(C)NCC(O)COc1ccc(COCCOC(C)C)cc1 (stereo not drawn) ?
### Response Not satisfied

### Prompt Would you kindly repeat that for C[C@](O)(COc1ccc(C#N)cc1)C(=O)Nc1ccc(C#N)c(C(F)(F)F)c1 ?
### Response Not satisfied

### Prompt Would you kindly repeat that for COc1cccc2cc(-c3nc(C4CCC(C(=O)O)CC4)n4ncnc(N)c34)[nH]c12 (stereo not drawn) ?
### Response Satisfied

### Prompt Would you kindly repeat that for Cc1cc(OCCCc2c(C(=O)O)n(Cc3cccnc3)c3c(-c4c(COc5ccc(N6CCN([S+](C)(=O)[O-])CC6)cc5)nn(C)c4C)cccc23)cc(C)c1Cl ?
### Response Satisfied

### Prompt Would you kindly repeat that for CCC[C@H](NC(=O)/C(C#N)=C/c1cccc(Br)n1)c1ccccc1 ?
### Response Not satisfied
